# PROCEDURE DETAILS: Clearance (CL) / pharmacokinetics
# Assay type: in vivo, mice
# CONDITIONS USED: mouse, plasma, iv; Table 2
PARAMETER: clearance (mL/min/kg)

| COMPOUND | UNITS LABEL | RESULT NUMBER |
| --- | --- | --- |
| COC(C(=NOCCNC(=O)c1[nH]c2ccc(O)cc2c1-c1ccc(Cl)cc1)C(O)C(C)O)C1Cc2cc3cc(OC4CC(OC5CC(O)C(O)C(C)O5)C(O)C(C)O4)c(C)c(O)c3c(O)c2C(=O)C1OC1CC(OC2CC(OC3CC(C)(O)C(O)C(C)O3)C(O)C(C)O2)C(O)C(C)O1 (stereo not drawn) | mL/min/kg | 0.417 |
| COC(C(=NOCCNC(=O)c1[nH]c2ccc(Cl)cc2c1-c1cccs1)C(O)C(C)O)C1Cc2cc3cc(OC4CC(OC5CC(O)C(O)C(C)O5)C(O)C(C)O4)c(C)c(O)c3c(O)c2C(=O)C1OC1CC(OC2CC(OC3CC(C)(O)C(O)C(C)O3)C(O)C(C)O2)C(O)C(C)O1 (stereo not drawn) | mL/min/kg | 0.317 |
| COC(C(=NOCc1[nH]c2ccc(Cl)cc2c1-c1ccccc1)C(O)C(C)O)C1Cc2cc3cc(OC4CC(OC5CC(O)C(O)C(C)O5)C(O)C(C)O4)c(C)c(O)c3c(O)c2C(=O)C1OC1CC(OC2CC(OC3CC(C)(O)C(O)C(C)O3)C(O)C(C)O2)C(O)C(C)O1 (stereo not drawn) | mL/min/kg | 0.25 |

###

# PROCEDURE DETAILS: Clearance (CL) / pharmacokinetics
# Type: in vivo, mice
# CONDITIONS USED: Table 4
Let's look at some molecules and their measured PK Improvement.
PARAMETER: PK Improvement

| MOLECULE | PARAMETER | RESULT NUMBER |
| --- | --- | --- |
| CO[C@H](C(=NOCCNC(=O)c1[nH]c2ccc(C(F)(F)F)cc2c1-c1ccc(Cl)cc1)[C@@H](O)[C@@H](C)O)[C@@H]1Cc2cc3cc(O[C@H]4C[C@@H](O[C@H]5C[C@@H](O)[C@H](O)[C@@H](C)O5)[C@H](O)[C@@H](C)O4)c(C)c(O)c3c(O)c2C(=O)[C@H]1O[C@H]1C[C@@H](O[C@H]2C[C@@H](O[C@H]3C[C@](C)(O)[C@H](O)[C@@H](C)O3)[C@@H](O)[C@@H](C)O2)[C@H](O)[C@@H](C)O1 | PK Improvement | 157.8 |
| CO[C@H](C(=NOCCNC(=O)c1cc2cc(Cl)ccc2[nH]1)[C@@H](O)[C@@H](C)O)[C@@H]1Cc2cc3cc(O[C@H]4C[C@@H](O[C@H]5C[C@@H](O)[C@H](O)[C@@H](C)O5)[C@H](O)[C@@H](C)O4)c(C)c(O)c3c(O)c2C(=O)[C@H]1O[C@H]1C[C@@H](O[C@H]2C[C@@H](O[C@H]3C[C@](C)(O)[C@H](O)[C@@H](C)O3)[C@@H](O)[C@@H](C)O2)[C@H](O)[C@@H](C)O1 | PK Improvement | 35.9 |
| COC(C(=NOCCNC(=O)c1[nH]c2ccc(C(F)(F)F)cc2c1-c1ccccc1)C(O)C(C)O)C1Cc2cc3cc(OC4CC(OC5CC(O)C(O)C(C)O5)C(O)C(C)O4)c(C)c(O)c3c(O)c2C(=O)C1OC1CC(OC2CC(OC3CC(C)(O)C(O)C(C)O3)C(O)C(C)O2)C(O)C(C)O1 (stereo not drawn) | PK Improvement | 131.5 |

###

# PROCEDURE DETAILS: log P
# Type: physicochemical
# CONDITIONS USED: Table 2
PARAMETER: logP

| CHEMICAL STRUCTURE | RESULT NUMBER |
| --- | --- |
| CO[C@H](C(=NOCCNC(=O)c1[nH]c2ccc(F)cc2c1-c1ccc(Cl)cc1)[C@@H](O)[C@@H](C)O)[C@@H]1Cc2cc3cc(O[C@H]4C[C@@H](O[C@H]5C[C@@H](O)[C@H](O)[C@@H](C)O5)[C@H](O)[C@@H](C)O4)c(C)c(O)c3c(O)c2C(=O)[C@H]1O[C@H]1C[C@@H](O[C@H]2C[C@@H](O[C@H]3C[C@](C)(O)[C@H](O)[C@@H](C)O3)[C@@H](O)[C@@H](C)O2)[C@H](O)[C@@H](C)O1 | 3.64 |
| CO[C@H](C(=NOCCNC(=O)c1cc2cc(Cl)cc(Cl)c2[nH]1)[C@@H](O)[C@@H](C)O)[C@@H]1Cc2cc3cc(O[C@H]4C[C@@H](O[C@H]5C[C@@H](O)[C@H](O)[C@@H](C)O5)[C@H](O)[C@@H](C)O4)c(C)c(O)c3c(O)c2C(=O)[C@H]1O[C@H]1C[C@@H](O[C@H]2C[C@@H](O[C@H]3C[C@](C)(O)[C@H](O)[C@@H](C)O3)[C@@H](O)[C@@H](C)O2)[C@H](O)[C@@H](C)O1 | 2.83 |

###

Let's look at some compounds and their measured log P.
# PROCEDURE DETAILS: log P
# Assay type: physicochemical
# CONDITIONS USED: Table 3

| COMPOUND | log P |
| --- | --- |
| COC(C(=NOCCNC(=O)c1[nH]c2ccc(C(F)(F)F)cc2c1-c1ccccc1)C(O)C(C)O)C1Cc2cc3cc(OC4CC(OC5CC(O)C(O)C(C)O5)C(O)C(C)O4)c(C)c(O)c3c(O)c2C(=O)C1OC1CC(OC2CC(OC3CC(C)(O)C(O)C(C)O3)C(O)C(C)O2)C(O)C(C)O1 (stereo not shown) [YL-C66] | 3.84 |
| COC(C(=NOCCNC(=O)c1[nH]c2ccc(Cl)cc2c1-c1ccc(F)c(Cl)c1)C(O)C(C)O)C1Cc2cc3cc(OC4CC(OC5CC(O)C(O)C(C)O5)C(O)C(C)O4)c(C)c(O)c3c(O)c2C(=O)C1OC1CC(OC2CC(OC3CC(C)(O)C(O)C(C)O3)C(O)C(C)O2)C(O)C(C)O1 (stereo not shown) [YL-C116] | 4.19 |
| CO[C@H](C(=NOCCNC(=O)c1[nH]c2ccc(C(F)(F)F)cc2c1-c1ccc(Cl)cc1)[C@@H](O)[C@@H](C)O)[C@@H]1Cc2cc3cc(O[C@H]4C[C@@H](O[C@H]5C[C@@H](O)[C@H](O)[C@@H](C)O5)[C@H](O)[C@@H](C)O4)c(C)c(O)c3c(O)c2C(=O)[C@H]1O[C@H]1C[C@@H](O[C@H]2C[C@@H](O[C@H]3C[C@](C)(O)[C@H](O)[C@@H](C)O3)[C@@H](O)[C@@H](C)O2)[C@H](O)[C@@H](C)O1 [YL-C67] | 4.56 |
| CO[C@H](C(=NOCCNC(=O)c1[nH]c2ccc(C(F)(F)F)cc2c1-c1ccc(F)c(Cl)c1)[C@@H](O)[C@@H](C)O)[C@@H]1Cc2cc3cc(O[C@H]4C[C@@H](O[C@H]5C[C@@H](O)[C@H](O)[C@@H](C)O5)[C@H](O)[C@@H](C)O4)c(C)c(O)c3c(O)c2C(=O)[C@H]1O[C@H]1C[C@@H](O[C@H]2C[C@@H](O[C@H]3C[C@](C)(O)[C@H](O)[C@@H](C)O3)[C@@H](O)[C@@H](C)O2)[C@H](O)[C@@H](C)O1 [YL-C68] | 4.54 |

###

# Tested on: TC32
# PROCEDURE DETAILS: Cytotoxicity, resazurin fluorescence, TC32
# Format: cell-based
# CONDITIONS USED: Homo sapiens, TC-32, 72 h, read-out: GI50 TC32, Table 5
Lab note: compare GI50 with 30 nM, writing 1 (yes) if less and 0 (no) if equal or more.

| COMPOUND | CLASS NAME |
| --- | --- |
| COC(C(=NOCCNC(=O)c1[nH]c2ccc(Cl)cc2c1-c1ccccc1)C(O)C(C)O)C1Cc2cc3cc(OC4CC(OC5CC(O)C(O)C(C)O5)C(O)C(C)O4)c(C)c(O)c3c(O)c2C(=O)C1OC1CC(OC2CC(OC3CC(C)(O)C(O)C(C)O3)C(O)C(C)O2)C(O)C(C)O1 (stereo not shown) [YL-B176] | 0 (no) |
| COC(C(=NOCCNC(=O)c1[nH]c2ccc(Cl)cc2c1-c1ccnn1C)C(O)C(C)O)C1Cc2cc3cc(OC4CC(OC5CC(O)C(O)C(C)O5)C(O)C(C)O4)c(C)c(O)c3c(O)c2C(=O)C1OC1CC(OC2CC(OC3CC(C)(O)C(O)C(C)O3)C(O)C(C)O2)C(O)C(C)O1 (stereo not shown) [YL-C104] | 0 (no) |
| COC(C(=NOCc1cc2ccccc2[nH]1)C(O)C(C)O)C1Cc2cc3cc(OC4CC(OC5CC(O)C(O)C(C)O5)C(O)C(C)O4)c(C)c(O)c3c(O)c2C(=O)C1OC1CC(OC2CC(OC3CC(C)(O)C(O)C(C)O3)C(O)C(C)O2)C(O)C(C)O1 (stereo not shown) [YL-C09] | 1 (yes) |
| COC(C(=NOCCNC(=O)c1cc2cc(Br)ccc2[nH]1)C(O)C(C)O)C1Cc2cc3cc(OC4CC(OC5CC(O)C(O)C(C)O5)C(O)C(C)O4)c(C)c(O)c3c(O)c2C(=O)C1OC1CC(OC2CC(OC3CC(C)(O)C(O)C(C)O3)C(O)C(C)O2)C(O)C(C)O1 (stereo not shown) [YL-B169] | 1 (yes) |
| COC(C(=NOCc1[nH]c2ccc(Cl)cc2c1-c1ccccc1)C(O)C(C)O)C1Cc2cc3cc(OC4CC(OC5CC(O)C(O)C(C)O5)C(O)C(C)O4)c(C)c(O)c3c(O)c2C(=O)C1OC1CC(OC2CC(OC3CC(C)(O)C(O)C(C)O3)C(O)C(C)O2)C(O)C(C)O1 (stereo not shown) [YL-C51] | 0 (no) |
| COC(C(=NOCCNC(=O)c1[nH]c2ccc(O)cc2c1-c1ccc(Cl)cc1)C(O)C(C)O)C1Cc2cc3cc(OC4CC(OC5CC(O)C(O)C(C)O5)C(O)C(C)O4)c(C)c(O)c3c(O)c2C(=O)C1OC1CC(OC2CC(OC3CC(C)(O)C(O)C(C)O3)C(O)C(C)O2)C(O)C(C)O1 (stereo not shown) [YL-C120] | 0 (no) |
| COC(C(=NOCCNC(=O)c1[nH]c2ccc(Cl)cc2c1-c1cccs1)C(O)C(C)O)C1Cc2cc3cc(OC4CC(OC5CC(O)C(O)C(C)O5)C(O)C(C)O4)c(C)c(O)c3c(O)c2C(=O)C1OC1CC(OC2CC(OC3CC(C)(O)C(O)C(C)O3)C(O)C(C)O2)C(O)C(C)O1 (stereo not shown) [YL-C106] | 0 (no) |
